These measurements were taken from patent US10548856B2.

- Experiment summary: Plasma and brain concentrations after subcutaneous administration (LC-MS/MS)
- Format: in vivo, C57Bl/6J mice
- Condition set: male, C57Bl/6J, mouse, brain; 3.0 mg/kg subcutaneous, mice, 60 min after injection, mean (SEM); read-out: Brain concentration
Property label: concentration at 60 min (ng/g)
Report only the number, with the unit ng/g understood.

Tell me measured concentration at 60 min for CN(C)C1CCc2c(cccc2-c2ccccc2F)C1 (single isomer, unassigned; (+)) [(+)-5-FPT] please.
2160
